Just for reference, ChEMBL document CHEMBL4043081 is where these values come from.

Molecular target: Vesicular acetylcholine transporter (Rattus norvegicus, UniProt Q62666)
Sequence (Q62666 whole entry): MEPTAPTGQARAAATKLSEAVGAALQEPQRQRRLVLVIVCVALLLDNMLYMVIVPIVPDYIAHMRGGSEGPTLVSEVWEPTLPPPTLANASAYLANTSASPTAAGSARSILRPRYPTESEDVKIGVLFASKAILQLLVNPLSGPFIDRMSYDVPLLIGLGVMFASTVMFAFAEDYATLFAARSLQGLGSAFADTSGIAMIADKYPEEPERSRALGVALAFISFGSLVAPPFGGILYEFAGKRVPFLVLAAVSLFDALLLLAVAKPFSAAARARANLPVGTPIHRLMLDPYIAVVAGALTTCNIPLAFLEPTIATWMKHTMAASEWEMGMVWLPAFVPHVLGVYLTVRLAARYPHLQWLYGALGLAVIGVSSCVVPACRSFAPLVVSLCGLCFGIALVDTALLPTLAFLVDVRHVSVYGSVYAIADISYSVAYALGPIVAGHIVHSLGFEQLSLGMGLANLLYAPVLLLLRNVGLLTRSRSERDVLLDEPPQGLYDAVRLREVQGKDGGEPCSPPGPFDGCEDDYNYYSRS
Rule: Ki below 200 nM gives Yes. Equal to or above 200 nM gives No.

>>> df
                        structure_as_smiles  category_label
0  O=C(c1ccc(Br)nc1)N1CC2(CCN(C/C=C/c3ccc(Cl)cc3)CC2)c2cc(F)ccc21             Yes
1  O=C(c1ccnc(F)c1)N1CC2(CCN(C/C=C/c3ccc(Cl)cc3)CC2)c2cc(F)ccc21             Yes
2  O=C(c1ccc(F)cc1)N1CC2(CCN(C/C=C/c3ccc(Cl)cc3)CC2)c2cc(F)ccc21              No
3  O=C(c1ccc(F)nc1)N1CC2(CCN(C/C=C/c3ccc(Cl)cc3)CC2)c2cc(F)ccc21              No
4  O=C(c1ccnc(Cl)c1)N1CC2(CCN(C/C=C/c3ccc(Cl)cc3)CC2)c2cc(F)ccc21             Yes
5  O=C(OCCF)N1CC2(CCN(C/C=C/c3ccc(Cl)cc3)CC2)c2cc(F)ccc21              No

----------
Molecular target: Sigma non-opioid intracellular receptor 1 (Rattus norvegicus)
Sequence (Q9R0C9 whole entry): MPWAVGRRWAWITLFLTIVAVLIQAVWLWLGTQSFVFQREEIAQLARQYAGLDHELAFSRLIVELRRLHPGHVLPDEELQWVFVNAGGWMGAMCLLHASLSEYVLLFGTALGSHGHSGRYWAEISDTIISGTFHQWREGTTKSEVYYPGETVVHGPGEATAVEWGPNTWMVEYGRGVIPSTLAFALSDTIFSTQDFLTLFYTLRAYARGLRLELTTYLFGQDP
Experiment: Displacement of [3H]pentazocine from sigma1 receptor in Sprague-Dawley rat cortex membranes incubated for 120 mins by liquid scintillation counting
reported.endpoint: Ki

>>> df
                        structure_as_smiles  reported_endpoint  test_value
0  O=C(c1ccc(Br)nc1)N1CC2(CCN(C/C=C/c3ccc(Cl)cc3)CC2)c2cc(F)ccc21                 Ki      179 nM
1  O=C(c1ccnc(F)c1)N1CC2(CCN(C/C=C/c3ccc(Cl)cc3)CC2)c2cc(F)ccc21                 Ki     55.4 nM
2  O=C(c1ccc(F)nc1)N1CC2(CCN(C/C=C/c3ccc(Cl)cc3)CC2)c2cc(F)ccc21                 Ki      282 nM
3  O=C(OCCF)N1CC2(CCN(C/C=C/c3ccc(Cl)cc3)CC2)c2cc(F)ccc21                 Ki     44.1 nM
4  O=C(c1ccc(F)cc1)N1CC2(CCN(C/C=C/c3ccc(Cl)cc3)CC2)c2cc(F)ccc21                 Ki      293 nM
5  O=C(c1ccnc(Cl)c1)N1CC2(CCN(C/C=C/c3ccc(Cl)cc3)CC2)c2cc(F)ccc21                 Ki      137 nM

----------
In this section, each of the molecules is paired with its reported Ki.
Target: Sigma intracellular receptor 2 (Rattus norvegicus)
Sequence (Q5U3Y7 whole entry): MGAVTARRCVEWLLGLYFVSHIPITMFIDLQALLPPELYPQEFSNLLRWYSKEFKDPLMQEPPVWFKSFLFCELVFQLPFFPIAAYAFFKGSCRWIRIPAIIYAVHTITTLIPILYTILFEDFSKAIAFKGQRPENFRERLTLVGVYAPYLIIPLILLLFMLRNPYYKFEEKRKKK
Assay: Displacement of [3H]pentazocine from sigma2 receptor in Sprague-Dawley rat liver membranes incubated for 120 mins by liquid scintillation counting
Type: cell membranes, Membrane
reported.endpoint: Ki (nM)

                        structure_as_smiles                       experimental_target  operator_symbol  test_value
0  O=C(c1ccnc(F)c1)N1CC2(CCN(C/C=C/c3ccc(Cl)cc3)CC2)c2cc(F)ccc21  Sigma intracellular receptor 2 (Rattus norvegicus)                =         748
1  O=C(c1ccnc(Cl)c1)N1CC2(CCN(C/C=C/c3ccc(Cl)cc3)CC2)c2cc(F)ccc21  Sigma intracellular receptor 2 (Rattus norvegicus)                =        1190
2  O=C(c1ccc(F)cc1)N1CC2(CCN(C/C=C/c3ccc(Cl)cc3)CC2)c2cc(F)ccc21  Sigma intracellular receptor 2 (Rattus norvegicus)                =        1200
3  O=C(OCCF)N1CC2(CCN(C/C=C/c3ccc(Cl)cc3)CC2)c2cc(F)ccc21  Sigma intracellular receptor 2 (Rattus norvegicus)                =        1520
4  O=C(c1ccc(F)nc1)N1CC2(CCN(C/C=C/c3ccc(Cl)cc3)CC2)c2cc(F)ccc21  Sigma intracellular receptor 2 (Rattus norvegicus)                >       10000
5  O=C(c1ccc(Br)nc1)N1CC2(CCN(C/C=C/c3ccc(Cl)cc3)CC2)c2cc(F)ccc21  Sigma intracellular receptor 2 (Rattus norvegicus)                =        60.1
